// values below are reported IC50
Molecular target: G12D-mutant human KRAS (amino acid residues 1-188) (Homo sapiens, UniProt P01116, G12D)
Construct: G12D or G12C-mutant human KRAS (amino acid residues 1-188) with FLAG tag; made in house; host or cells: E. coli
Sequence (P01116 1-188 isoform P01116-2 G12D): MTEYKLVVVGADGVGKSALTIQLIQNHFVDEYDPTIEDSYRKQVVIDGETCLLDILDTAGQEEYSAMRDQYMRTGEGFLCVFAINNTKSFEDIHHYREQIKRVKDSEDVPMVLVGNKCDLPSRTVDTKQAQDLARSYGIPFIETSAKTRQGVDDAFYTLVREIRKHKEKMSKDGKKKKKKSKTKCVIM
Assay: KRAS Binding Disruption Assay (AlphaScreen; biotinylated KRpep-2d analogue or RAF1-RBD), G12D
Details: KRAS G12D; geometric mean; read-out: KRAS GMean IC50 (uM) MUTATION: G12D

A selection of reference data follows.
MOLECULE	IC50
CN1CCC[C@H]1COc1nc(N2C[C@H]3CC[C@@H](C2)N3S(=O)(=O)N2CCOC2=O)c2ccc(-c3cc(O)cc4ccccc34)c(F)c2n1 [P-0377]	0.0001 to 10 µM
Cc1cccc2c(Nc3c(F)cc4c(N5C[C@H]6CC[C@@H](C5)N6)nc(OC[C@@H]5CCCN5C)nc4c3F)n[nH]c12 [P-0457]	10 to 100 µM
CN(C)C1CCN(c2nc(N3C[C@H]4CC[C@@H](C3)N4)c3ccc(-c4cc(O)cc5ccccc45)c(F)c3n2)C1 (stereo partly drawn) [P-0704]	0.0001 to 10 µM
CN1CCC[C@H]1COc1nc(N2[C@@H]3CC[C@H]2CN(CC(=O)N2CCOCC2)C3)c2ccc(-c3cc(O)cc4ccccc34)cc2n1 [P-0276]	10 to 100 µM
Cc1ccnc(-c2ccc3c(N4[C@@H]5CC[C@H]4CNC5)nc(OC[C@@H]4CCCN4C)nc3c2)c1C [P-0261]	100 to 1000 µM

What IC50 value was documented for this molecule, Fc1c(-c2c[nH]c3cccc(CC4CC4)c23)ccc2c(N3C[C@H]4CC[C@@H](C3)N4)nc(OCC34CCCN3CCC4)nc12 [P-0653] ?
0.0001 to 10 µM

What IC50 value was documented for this molecule, Oc1cc(-c2ccc3c(N4C[C@H]5CC[C@@H](C4)N5)nc(OCCN4CCOCC4)nc3c2F)c2ccccc2c1 [P-0695] ?
0.0001 to 10 µM

What IC50 value was documented for this molecule, COCc1cccc2[nH]cc(-c3ccc4c(N5C[C@H]6CC[C@@H](C5)N6)nc(OCC56CCCN5CCC6)nc4c3F)c12 [P-0567] ?
0.0001 to 10 µM

What IC50 value was documented for this molecule, CC(C)(COc1nc(N2C[C@H]3CC[C@@H](C2)N3)c2ccc(-c3cc(O)cc4ccccc34)c(F)c2n1)NC(N)=O [P-0619] ?
0.0001 to 10 µM

What IC50 value was documented for this molecule, CN1CCC[C@H]1COc1nc(N2C[C@H]3CC[C@@H](C2)N3)c2cc(F)c(-c3cn(C)c4ccccc34)c(F)c2n1 [P-0801] ?
10 to 100 µM

What IC50 value was documented for this molecule, Fc1c(-c2cccc3cccc(Cl)c23)ccc2c(N3C[C@H]4CC[C@@H](C3)N4)nc(OCC34CCCN3CCC4)nc12 [P-0570] ?
0.0001 to 10 µM

What IC50 value was documented for this molecule, CN1CCC[C@H]1COc1nc(N2C[C@H]3CC[C@@H](C2)N3)c2ccc(-c3cc(N)nc4ccccc34)c(F)c2n1 [P-0760] ?
0.0001 to 10 µM

What IC50 value was documented for this molecule, Oc1cc(-c2ccc3c(N4CC5CCC(C4)N5)nc(OCC4CCC(O)C4)nc3c2F)c2ccccc2c1 (stereo not drawn) [P-0622] ?
0.0001 to 10 µM

What IC50 value was documented for this molecule, C=Cc1cc2c(N3C[C@H]4CC[C@@H](C3)N4)nc(OC[C@@H]3CCCN3C)nc2c(F)c1-c1cc(O)cc2ccccc12 [P-0036] ?
0.0001 to 10 µM

What IC50 value was documented for this molecule, Cc1cc(CN2[C@@H]3CC[C@H]2CN(c2nc(OCC45CCCN4CCC5)nc4cc(-c5cc(O)cc6ccccc56)ccc24)C3)no1 [P-0006] ?
0.0001 to 10 µM

What IC50 value was documented for this molecule, CC(=O)NCCCN1CCCC1COc1nc(N2C[C@H]3CC[C@@H](C2)N3)c2ccc(-c3cc(O)cc4ccccc34)c(F)c2n1 (mixture of isomers) [P-0674] ?
0.0001 to 10 µM
